test: in vivo; details: CD-1, mouse
Description: Half life in CD-1 mouse at 1 mg/kg, iv or 5 mg/kg, po
assay metric: half-life (h)
Write the answer as a number in h, unit excluded.

Can you share its half-life? I mean this molecule: CC(=O)N1CCc2c(c(-c3cccc4cc(-c5cnn(C)c5)ncc34)nn2C2CCOCC2)C1 1.6

----------
assay: in vitro; conditions: human, plasma
Description: Protein binding in human plasma
assay metric: fraction unbound

Can you share its fraction unbound? I mean this compound: CC(=O)N1CCc2c(c(-c3cccc4cc(-c5cnn(C)c5)ncc34)nn2C2CCOCC2)C1 0.3

----------
assay: in vitro; conditions: mouse, hepatocytes
Description: Hepatic clearance in mouse hepatocytes
assay metric: CLhep predicted

Can you share its CLhep predicted? I mean this compound: CC(=O)N1CCc2c(c(-c3cccc4cc(-c5cnn(C)c5)ncc34)nn2C2CCOCC2)C1 < 21 mL/min/kg

----------
assay: in vitro; conditions: mouse, plasma
Description: Protein binding in mouse plasma
assay metric: fraction unbound
Reply with just the number.

Can you share its fraction unbound? I mean this compound: CC(=O)N1CCc2c(c(-c3cccc4cc(-c5cnn(C)c5)ncc34)nn2C2CCOCC2)C1 0.15

----------
// endpoint pIC50 / system Bromodomain-containing protein 4 (Homo sapiens, UniProt O60885)
// pIC50: -log10(molar conc.)

Can you share its pIC50? I mean this compound: COc1ccc(-c2nn(C3CCOCC3)c3c2CN(C(C)=O)CC3)c2cnccc12 4.96

Can you share its pIC50? I mean this compound: CC(=O)N1CCc2c(c(-c3cccc4cc(-c5cn(C)nc5C#N)ncc34)nn2C2CCOCC2)C1 5.42

Can you share its pIC50? I mean this compound: CC(=O)N1CCc2c(c(-c3cccc4cc(-c5cnn(C)c5)ncc34)nn2C2CCOCC2)C1 5.60

----------
test: physchem; details: buffer, pH 7.4
Description: Kinetic solubility in PBS buffer at pH 7.4
assay metric: solubility kinetic (µM)
Write the answer as a number in µM, unit excluded.

Can you share its solubility kinetic? I mean this compound: CC(=O)N1CCc2c(c(-c3cccc4cc(-c5cnn(C)c5)ncc34)nn2C2CCOCC2)C1 92

----------
experiment: in vitro; details: rat, plasma
Description: Protein binding in rat plasma
assay metric: fraction unbound
Reply with just the number.

Can you share its fraction unbound? I mean this molecule: CC(=O)N1CCc2c(c(-c3cccc4cc(-c5cnn(C)c5)ncc34)nn2C2CCOCC2)C1 0.24

----------
experiment: in vitro; settings: rat, microsomes
Description: Clearance in rat liver microsomes
assay metric: CLhep predicted (mL/min/kg)
Write the answer as a number in mL/min/kg, unit excluded.

Can you share its CLhep predicted? I mean this compound: CC(=O)N1CCc2c(c(-c3cccc4cc(-c5cn(C)nc5C#N)ncc34)nn2C2CCOCC2)C1 45

Can you share its CLhep predicted? I mean this compound: CC(=O)N1CCc2c(c(-c3cccc4cc(-c5cnn(C)c5)ncc34)nn2C2CCOCC2)C1 18

----------
experiment: in vitro; conditions: dog, MDCK
Description: Apparent permeability from apical to basolateral side in MDCK cells
assay metric: Papp A→B (nm/s)
Write the answer as a number in nm/s, unit excluded.

Can you share its Papp A→B? I mean this compound: CC(=O)N1CCc2c(c(-c3cccc4cc(-c5cnn(C)c5)ncc34)nn2C2CCOCC2)C1 100

----------
test: in vitro; settings: human, hepatocytes
Description: Hepatic clearance in human hepatocytes
assay metric: CLhep predicted

Can you share its CLhep predicted? I mean this molecule: CC(=O)N1CCc2c(c(-c3cccc4cc(-c5cnn(C)c5)ncc34)nn2C2CCOCC2)C1 < 6 mL/min/kg

----------
test: in vivo; settings: CD-1, mouse, po, 5 mg/kg
assay metric: bioavailability (%)
Write the answer as a number in %, unit excluded.

Can you share its bioavailability? I mean this molecule: CC(=O)N1CCc2c(c(-c3cccc4cc(-c5cnn(C)c5)ncc34)nn2C2CCOCC2)C1 67

These entries and their values trace back to ChEMBL document CHEMBL4184171.
